Reported values of pKd for individual entries
Molecular target: T1, mouse MerTK (mouse, UniProt Q60805 23-496)
T1 construct: also called MuMER
T1 sequence (looked up): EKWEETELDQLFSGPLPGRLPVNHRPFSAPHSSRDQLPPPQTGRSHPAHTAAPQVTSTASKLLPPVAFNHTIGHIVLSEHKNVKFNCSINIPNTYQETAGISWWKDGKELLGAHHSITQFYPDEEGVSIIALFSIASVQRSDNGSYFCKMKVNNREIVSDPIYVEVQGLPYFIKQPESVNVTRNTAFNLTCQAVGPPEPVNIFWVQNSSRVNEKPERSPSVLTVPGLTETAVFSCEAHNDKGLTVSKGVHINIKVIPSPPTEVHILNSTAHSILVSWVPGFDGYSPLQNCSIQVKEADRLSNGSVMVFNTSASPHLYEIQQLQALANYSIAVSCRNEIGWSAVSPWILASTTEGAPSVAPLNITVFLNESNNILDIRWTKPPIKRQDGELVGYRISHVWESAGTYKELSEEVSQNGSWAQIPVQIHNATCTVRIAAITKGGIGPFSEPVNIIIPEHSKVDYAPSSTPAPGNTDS
Assay: SPR BIAcore T200, Ab captured, 37C
Here pKd is given on a logarithmic scale as minus log10 of the concentration in mol/L.

Rbt10F7 (antibody, V domains shown, Recombinant rabbit monoclonal antibody, Expi293, protein A purified) VH: QSVEESGGRLVTPGTPLTLTCTVSGFSLSGYAMSWVRQAPGKGLEYIGVISSSGSSYYPSWAKGRFTISKTSTTVDLQITSPTTEDTATYFCARVQFYVGYAVYGYGIIDRLDLWGQGTLVTVSS VL: AAVLTQTPSPVSATMGGTVSISCQSSKSVYNNNWLSWYQQKPGQPPKLLIYRASTLESGVPSRFKGSGSGTQFTLTISDVHCDDAATYFCAGGYSSSSSANAFGGGTEVVVK ... 8.62
h10C3.v1 (antibody, V domains shown, also called h10C3.V1 (Parent); 10C3 Humanized mAb V1) VH: EQQLVESGGGLVQPGGSLRLSCAASGFSLSGYTMGWVRQAPGKGLEYIGVISSGGTTYYTNWAKGRFTISKDSSKNTVYLQMGSLRAEDMAVYFCARVAFTAYGGGGFPTLHRLDLWGQGTLVTVSS VL: DQVLTQSPDSLAVSLGERATINCQSSESVYNNDYLAWYQQKPGQPPKLLIYSASTLASGVPDRFSGSGSGTDFTLTISSLQAEDVAVYYCAGGYLGNNVFGGGTKVEIK ... 9.00

// pKd lookup, key: h10F7.v1 (antibody, V domains shown, also called h10F7.V1 (Parent); 10F7 Humanized mAb V1) VH: EQQLVESGGGLVQPGGSLRLSCAVSGFSLSGYAMSWVRQAPGKGLEYIGVISSSGSSYYPSWAKGRFTISKDSSKNTVYLQMGSLRAEDMAVYFCARVQFYVGYAVYGYGIIDRLDLWGQGTLVTVSS VL: DAVLTQSPDSLAVSLGERATINCQSSKSVYNNNWLSWYQQKPGQPPKLLIYRASTLESGVPDRFSGSGSGTDFTLTISSLQAEDVAVYFCAGGYSSSSSANAFGGGTKVEIK
8.82
